# System: HCT-116 colon
# ASSAY_COMMENT: NCI tumour cell line growth inhibition, 48 h
MEASUREMENT_LABEL: GI50

// worked examples, GI50 included
| SMI | GI50 |
| --- | --- |
| C[C@@]1([C@H](OC(=O)c2cccc3ccccc23)C(N)=O)CO1 | 368 nM |
| C/C(=N\NC(=O)c1cccc(S(=O)(=O)N2CCN(C)CC2)c1)c1cc(Cl)ccc1O | 480 nM |

For each entry beneath this line, provide reported GI50.
1. Oc1ccccc1/C=N/Nc1nc2ccccc2s1
2. COc1ccc(/C=C(/C(=O)N2CCN(c3ccc(C)cc3)CC2)c2cc(OC)c(OC)c(OC)c2)cc1N
3. N=C(N)c1ccc(CS(=O)(=O)F)cc1
4. CS(=O)(=O)OCCCCOS(C)(=O)=O

Result:
1: 2850 nM; 2: 254 nM; 3: > 100000 nM; 4: 689000 nM
